# assay_summary: Solubility of triptophenolide in aqueous solutions with different concentrations of gastrodin and/or water-soluble cyclodextrin
# Assay type: physicochemical
# condition: aqueous solution of solubilizer, aqueous with cosolvent or surfactant or cyclodextrin, Hydroxypropyl-β-cyclodextrin concentration 15 %
value_type: solubility (mg/mL)

• OC[C@H]1O[C@@H](Oc2cc(/C=C/c3cc(O)cc(O)c3)ccc2O)[C@H](O)[C@@H](O)[C@@H]1O = 43.3

====

# assay_summary: Solubility of triptophenolide in aqueous solutions with different concentrations of gastrodin and/or water-soluble cyclodextrin
# Assay type: physicochemical
# condition: aqueous solution of solubilizer, aqueous with cosolvent or surfactant or cyclodextrin, Solubilizer concentration: Gastrodin 10 %, Hydroxypropyl-β-cyclodextrin 3 %
# From the text: Table 1. Solubility of triptophenolide in aqueous solutions with different concentrations of gastrodin and/or water-soluble cyclodextrin
value_type: solubility (mg/mL)

- OC[C@H]1O[C@@H](Oc2cc(/C=C/c3cc(O)cc(O)c3)ccc2O)[C@H](O)[C@@H](O)[C@@H]1O: 39.8

====

# assay_summary: Solubility of triptophenolide in aqueous solutions with different concentrations of gastrodin and/or water-soluble cyclodextrin
# Assay type: physicochemical
# condition: aqueous solution of solubilizer, aqueous with cosolvent or surfactant or cyclodextrin, Gastrodin concentration 45 %
value_type: solubility (mg/mL)

- OC[C@H]1O[C@@H](Oc2cc(/C=C/c3cc(O)cc(O)c3)ccc2O)[C@H](O)[C@@H](O)[C@@H]1O: 98

====

# assay_summary: Solubility of triptophenolide in aqueous solutions with different concentrations of gastrodin and/or water-soluble cyclodextrin
# Format: physicochemical
# condition: aqueous solution of solubilizer, aqueous with cosolvent or surfactant or cyclodextrin, Hydroxypropyl-β-cyclodextrin concentration 30 %
value_type: solubility

* OC[C@H]1O[C@@H](Oc2cc(/C=C/c3cc(O)cc(O)c3)ccc2O)[C@H](O)[C@@H](O)[C@@H]1O | 116 mg/mL

====

# assay_summary: Solubility of triptophenolide in aqueous solutions with different concentrations of gastrodin and/or water-soluble cyclodextrin
# Format: physicochemical
# condition: aqueous solution of solubilizer, aqueous with cosolvent or surfactant or cyclodextrin, Solubilizer concentration: Gastrodin 35 %, Hydroxypropyl-β-cyclodextrin 3 %
# From the text: Table 1. Solubility of triptophenolide in aqueous solutions with different concentrations of gastrodin and/or water-soluble cyclodextrin
value_type: solubility

- OC[C@H]1O[C@@H](Oc2cc(/C=C/c3cc(O)cc(O)c3)ccc2O)[C@H](O)[C@@H](O)[C@@H]1O: 233 mg/mL

====

# assay_summary: Solubility of triptophenolide in aqueous solutions with different concentrations of gastrodin and/or water-soluble cyclodextrin
# Type: physicochemical
# condition: aqueous solution of solubilizer, aqueous with cosolvent or surfactant or cyclodextrin, Hydroxypropyl-β-cyclodextrin concentration 1 %
value_type: solubility (µg/mL)

• OC[C@H]1O[C@@H](Oc2cc(/C=C/c3cc(O)cc(O)c3)ccc2O)[C@H](O)[C@@H](O)[C@@H]1O = 4800

====

# assay_summary: Solubility of triptophenolide in aqueous solutions with different concentrations of gastrodin and/or water-soluble cyclodextrin
# Assay type: physicochemical
# condition: aqueous solution of solubilizer, aqueous with cosolvent or surfactant or cyclodextrin, Hydroxypropyl-β-cyclodextrin concentration 3 %
value_type: solubility (mg/mL)

• OC[C@H]1O[C@@H](Oc2cc(/C=C/c3cc(O)cc(O)c3)ccc2O)[C@H](O)[C@@H](O)[C@@H]1O = 10.8

====

# assay_summary: Solubility of triptophenolide in aqueous solutions with different concentrations of gastrodin and/or water-soluble cyclodextrin
# Type: physicochemical
# condition: aqueous solution of solubilizer, aqueous with cosolvent or surfactant or cyclodextrin, Gastrodin concentration 1 %
value_type: solubility (µg/mL)

* OC[C@H]1O[C@@H](Oc2cc(/C=C/c3cc(O)cc(O)c3)ccc2O)[C@H](O)[C@@H](O)[C@@H]1O | 3190

====

# assay_summary: Solubility of triptophenolide in aqueous solutions with different concentrations of gastrodin and/or water-soluble cyclodextrin
# Format: physicochemical
# condition: aqueous solution of solubilizer, aqueous with cosolvent or surfactant or cyclodextrin, Hydroxypropyl-β-cyclodextrin concentration 25 %
value_type: solubility

• OC[C@H]1O[C@@H](Oc2cc(/C=C/c3cc(O)cc(O)c3)ccc2O)[C@H](O)[C@@H](O)[C@@H]1O = 64.3 mg/mL

====

# assay_summary: Solubility of triptophenolide in aqueous solutions with different concentrations of gastrodin and/or water-soluble cyclodextrin
# Assay type: physicochemical
# condition: aqueous solution of solubilizer, aqueous with cosolvent or surfactant or cyclodextrin, Gastrodin concentration 30 %
value_type: solubility (mg/mL)

- OC[C@H]1O[C@@H](Oc2cc(/C=C/c3cc(O)cc(O)c3)ccc2O)[C@H](O)[C@@H](O)[C@@H]1O: 60.4

====

# assay_summary: Solubility of triptophenolide in aqueous solutions with different concentrations of gastrodin and/or water-soluble cyclodextrin
# Assay type: physicochemical
# condition: aqueous solution of solubilizer, water, Hydroxypropyl-β-cyclodextrin concentration 0 %
value_type: solubility

* OC[C@H]1O[C@@H](Oc2cc(/C=C/c3cc(O)cc(O)c3)ccc2O)[C@H](O)[C@@H](O)[C@@H]1O | 1750 µg/mL

====

# assay_summary: Solubility of triptophenolide in aqueous solutions with different concentrations of gastrodin and/or water-soluble cyclodextrin
# Type: physicochemical
# condition: aqueous solution of solubilizer, aqueous with cosolvent or surfactant or cyclodextrin, Solubilizer concentration: Gastrodin 3 %, Hydroxypropyl-β-cyclodextrin 3 %
value_type: solubility (mg/mL)

* OC[C@H]1O[C@@H](Oc2cc(/C=C/c3cc(O)cc(O)c3)ccc2O)[C@H](O)[C@@H](O)[C@@H]1O | 16.2

====

# assay_summary: Solubility of triptophenolide in aqueous solutions with different concentrations of gastrodin and/or water-soluble cyclodextrin
# Assay type: physicochemical
# condition: aqueous solution of solubilizer, aqueous with cosolvent or surfactant or cyclodextrin, Solubilizer concentration: Gastrodin 50 %, Hydroxypropyl-β-cyclodextrin 3 %
value_type: solubility

• OC[C@H]1O[C@@H](Oc2cc(/C=C/c3cc(O)cc(O)c3)ccc2O)[C@H](O)[C@@H](O)[C@@H]1O = 188 mg/mL

====

# assay_summary: Solubility of triptophenolide in aqueous solutions with different concentrations of gastrodin and/or water-soluble cyclodextrin
# Assay type: physicochemical
# condition: aqueous solution of solubilizer, aqueous with cosolvent or surfactant or cyclodextrin, Gastrodin concentration 8 %
value_type: solubility (µg/mL)

- OC[C@H]1O[C@@H](Oc2cc(/C=C/c3cc(O)cc(O)c3)ccc2O)[C@H](O)[C@@H](O)[C@@H]1O: 9170

====

# assay_summary: Solubility of triptophenolide in aqueous solutions with different concentrations of gastrodin and/or water-soluble cyclodextrin
# Type: physicochemical
# condition: aqueous solution of solubilizer, aqueous with cosolvent or surfactant or cyclodextrin, Gastrodin concentration 3 %
value_type: solubility (µg/mL)

* OC[C@H]1O[C@@H](Oc2cc(/C=C/c3cc(O)cc(O)c3)ccc2O)[C@H](O)[C@@H](O)[C@@H]1O | 5100

====

# assay_summary: Solubility of triptophenolide in aqueous solutions with different concentrations of gastrodin and/or water-soluble cyclodextrin
# Assay type: physicochemical
# condition: aqueous solution of solubilizer, aqueous with cosolvent or surfactant or cyclodextrin, Hydroxypropyl-β-cyclodextrin concentration 45 %
value_type: solubility (mg/mL)

- OC[C@H]1O[C@@H](Oc2cc(/C=C/c3cc(O)cc(O)c3)ccc2O)[C@H](O)[C@@H](O)[C@@H]1O: 181

====

# assay_summary: Solubility of triptophenolide in aqueous solutions with different concentrations of gastrodin and/or water-soluble cyclodextrin
# Type: physicochemical
# condition: aqueous solution of solubilizer, aqueous with cosolvent or surfactant or cyclodextrin, Gastrodin concentration 40 %
value_type: solubility

• OC[C@H]1O[C@@H](Oc2cc(/C=C/c3cc(O)cc(O)c3)ccc2O)[C@H](O)[C@@H](O)[C@@H]1O = 85.1 mg/mL

====

# assay_summary: Solubility of triptophenolide in aqueous solutions with different concentrations of gastrodin and/or water-soluble cyclodextrin
# Format: physicochemical
# condition: aqueous solution of solubilizer, aqueous with cosolvent or surfactant or cyclodextrin, Solubilizer concentration: Gastrodin 25 %, Hydroxypropyl-β-cyclodextrin 3 %
value_type: solubility (mg/mL)

- OC[C@H]1O[C@@H](Oc2cc(/C=C/c3cc(O)cc(O)c3)ccc2O)[C@H](O)[C@@H](O)[C@@H]1O: 127

====

# assay_summary: Solubility of triptophenolide in aqueous solutions with different concentrations of gastrodin and/or water-soluble cyclodextrin
# Type: physicochemical
# condition: aqueous solution of solubilizer, aqueous with cosolvent or surfactant or cyclodextrin, Hydroxypropyl-β-cyclodextrin concentration 5 %
value_type: solubility (mg/mL)

- OC[C@H]1O[C@@H](Oc2cc(/C=C/c3cc(O)cc(O)c3)ccc2O)[C@H](O)[C@@H](O)[C@@H]1O: 20

====

# assay_summary: Solubility of triptophenolide in aqueous solutions with different concentrations of gastrodin and/or water-soluble cyclodextrin
# Assay type: physicochemical
# condition: aqueous solution of solubilizer, aqueous with cosolvent or surfactant or cyclodextrin, Solubilizer concentration: Gastrodin 40 %, Hydroxypropyl-β-cyclodextrin 3 %
value_type: solubility

- OC[C@H]1O[C@@H](Oc2cc(/C=C/c3cc(O)cc(O)c3)ccc2O)[C@H](O)[C@@H](O)[C@@H]1O: 197 mg/mL
